So I've got a bunch of compounds here, and I need their DC50 values.
System name: SHP2 protein (Homo sapiens, UniProt Q06124)
Assay name: Degradation activity on SHP2 protein in MIA Paca-2 cells (Western blot, DC50)
Assay type: cell-based
Design: endogenous in cells; host or cells: MIA Paca-2 cells
Protocol conditions: read-out: Degradation activity for differenct cell lines MIA Paca-2 (DC50)

Check out these entries, answers already filled in.
Compound	Endpoint label	Result
CC1(N)CCN(c2cnc(Sc3cccc(NC(=O)c4ncc(N5CCC(N6CCN(c7ccc(C(=O)NCc8ccc9c(c8)CN(C8CCC(=O)NC8=O)C9=O)nc7)CC6)CC5)cn4)c3)cn2)CC1 (stereo not shown) [Compound 451]	DC50	< 100 nM
CC1(N)CCN(c2cnc(Sc3cccc(NC(=O)c4ccc(N5CCC(N6CC=C(c7ccc(C(=O)NCc8ccc9c(c8)CN(C8CCC(=O)NC8=O)C9=O)nn7)CC6)C5)cc4)c3)cn2)CC1 (stereo not shown) [Compound 402]	DC50	< 100 nM
CC1CN(CCCCCCCCC(=O)Nc2cccc(Sc3cnc(N4CCC(C)(N)CC4)cn3)c2)CC=C1c1ccc(C(=O)NCc2ccc3c(c2)CN(C2CCC(=O)NC2=O)C3=O)nc1 (stereo not shown) [Compound 243]	DC50	< 100 nM
CC1(N)CCN(c2cnc(Sc3cccc(NC(=O)CCCCCCCN4CC5CN(c6ccc(C(=O)NCc7ccc8c(c7)CN(C7CCC(=O)NC7=O)C8=O)nn6)CC5C4)c3)cn2)CC1 (stereo not shown) [Compound 100]	DC50	< 100 nM

Value sought for every listed compound: DC50.
1. C[C@@H]1OCC2(CCN(c3cnc(Sc4cccc(NCc5ccc(CN6CCN(c7ccc8c(c7)CN(C7CCC(=O)NC7=O)C8=O)CC6)cc5)c4)cn3)CC2)[C@@H]1N (stereo partly shown) [Compound 255]
2. CC1(N)CCN(c2cnc(Sc3cccc(NC(=O)CCN4CCN(c5ccc(C(=O)NCc6ccc7c(c6)CN(C6CCC(=O)NC6=O)C7=O)nn5)CC4)c3)cn2)CC1 (stereo not shown) [Compound 248]
3. CC1(N)CCN(c2cnc(Sc3cccc(NC(=O)CCCCCOc4ccc(C5CC5C(=O)NCc5ccc6c(c5)C(=O)N(C5CCC(=O)NC5=O)C6)cc4)c3)cn2)CC1 (stereo not shown) [Compound 189]
4. C[C@@H]1OCC2(CCN(c3cnc(Sc4cccc(NC(=O)c5ccc(N6CCC(N7CC=C(c8ccc(C(=O)NCc9ccc%10c(c9)CN(C9CCC(=O)NC9=O)C%10=O)c(F)c8)CC7)CC6)c(F)c5)c4)cn3)CC2)[C@@H]1N (stereo partly shown) [Compound 482]
5. C[C@@H]1OCC2(CCN(c3cnc(Sc4cccc(NC(=O)c5ccc(N6CCC(N7CCN(c8ccc9c(c8)CN(C8CCC(=O)NC8=O)C9=O)CC7)CC6)c(F)c5)c4)cn3)CC2)[C@@H]1N (stereo partly shown) [Compound 280]
6. CC1(N)CCN(c2cnc(Sc3cccc(NC(=O)c4ccc(C5=CCC(N6CC=C(c7ccnc(C(=O)NCc8ccc9c(c8)CN(C8CCC(=O)NC8=O)C9=O)c7)C6)CC5)c(F)c4)c3)cn2)CC1 (stereo not shown) [Compound 416]
7. CC1(N)CCN(c2cnc(Sc3cccc(NC(=O)c4cnc(N5CCC(N6CC=C(c7ccc(C(=O)NCc8ccc9c(c8)CN(C8CCC(=O)NC8=O)C9=O)nn7)CC6)CC5)cn4)c3)cn2)CC1 (stereo not shown) [Compound 429]

1: > 1000 nM; 2: < 100 nM; 3: > 1000 nM; 4: < 100 nM; 5: > 1000 nM; 6: > 1000 nM; 7: 100 to 1000 nM

Lab note: each compound below needs its DC50 filled in.
1. C[C@@H]1OCC2(CCN(c3cnc(Sc4cccc(NC(=O)c5ccc(CN6CCN(c7ccc8c(c7)CN(C7CCC(=O)NC7=O)C8=O)CC6)cc5)c4)cn3)CC2)[C@@H]1N (stereo partly shown) [Compound 285]
2. CC1CN(c2ccc(C(=O)NCc3ccc4c(c3)CN(C3CCC(=O)NC3=O)C4=O)nn2)CC(C)N1CCCCCCCCC(=O)Nc1cccc(Sc2cnc(N3CCC(C)(N)CC3)cn2)c1 (stereo not shown) [Compound 138]
3. CC1(N)CCN(c2cnc(Sc3cccc(NC(=O)c4ccc(N5CCC(N6CC=C(c7ccc(C(=O)NCc8ccc9c(c8)CN(C8CCC(=O)NC8=O)C9=O)nc7Cl)CC6)CC5)c(F)c4)c3)cn2)CC1 (stereo not shown) [Compound 442]
4. C[C@@H]1OCC2(CCN(c3cnc(Sc4cccc(NC(=O)CCN5CC=C(c6ccc(C(=O)NCc7ccc8c(c7)CN(C7CCC(=O)NC7=O)C8=O)nc6)C(C)(C)C5)c4)cn3)CC2)[C@@H]1N (stereo partly shown) [Compound 275]

> 1000 nM
< 100 nM
100 to 1000 nM
> 1000 nM

Could you report DC50 for every entry in the following list?
1. CC1(N)CCN(c2cnc(Sc3cccc(NC(=O)c4ccc(N5CCC(N6CCN(c7nnc(C(=O)NCc8ccc9c(c8)CN(C8CCC(=O)NC8=O)C9=O)cc7Cl)CC6)CC5)cc4F)c3)cn2)CC1 (stereo not shown) [Compound 494]
2. CC1CC(c2ccc(C(=O)NCc3ccc4c(c3)CN(C3CCC(=O)NC3=O)C4=O)nn2)=CCN1CCCCCCCCC(=O)Nc1cccc(Sc2cnc(N3CCC(C)(N)CC3)cn2)c1 (stereo not shown) [Compound 228]
3. CC1(N)CCN(c2cnc(Sc3cccc(NC(=O)C4CCC(N5CCN(c6ccc7c(c6)C(=O)N(C6CCC(=O)NC6=O)C7=O)CC5)CC4)c3)cn2)CC1 (stereo not shown) [Compound 270]
4. C[C@@H]1OCC2(CCN(c3cnc(Sc4cccc(NCc5ccc(N6CCC(N7CC=C(c8ccc(C(=O)NCc9ccc%10c(c9)CN(C9CCC(=O)NC9=O)C%10=O)nc8)CC7)CC6)c(F)c5)c4)cn3)CC2)[C@@H]1N (stereo partly shown) [Compound 485]

1. < 100 nM
2. < 100 nM
3. > 1000 nM
4. < 100 nM

---

Kindly supply the reported DC50 values for the records listed here.
System name: SHP2 protein (Homo sapiens, UniProt Q06124)
Assay name: Degradation activity on SHP2 protein in MV-411 cells (Western blot, DC50)
Assay type: cell-based
Parameters: endogenous in cells
Protocol conditions: MV411 cells, 24 hours, read-out: Degradation activity for differenct cell lines MV411 (DC50)

Molecule	System name	DC50
CC1(N)CCN(c2cnc(Sc3cccc(NC(=O)COCCOCCN4CCN(c5ncc(C(=O)NCc6ccc7c(c6)CN(C6CCC(=O)NC6=O)C7=O)cn5)CC4)c3)cn2)CC1 (stereo not drawn)	SHP2 protein (Homo sapiens, UniProt Q06124)	> 1 µM
CN(Cc1ccc2c(c1)CN(C1CCC(=O)NC1=O)C2=O)C(=O)c1ccc(N2CCC(OCCCCCCCC(=O)Nc3cccc(Sc4cnc(N5CCC(C)(N)CC5)cn4)c3)C(F)(F)C2)nn1 (stereo not drawn)	SHP2 protein (Homo sapiens, UniProt Q06124)	< 0.1 µM

API: the following record is the query input.
State DC50 (SHP2 protein (Homo sapiens, UniProt Q06124)) of CC1(N)CCN(c2cnc(Sc3cccc(NC(=O)CCCCCOC4CC5(CCN(c6ccc(C(=O)NCc7ccc8c(c7)CN(C7CCC(=O)NC7=O)C8=O)cc6F)CC5)C4)c3)cn2)CC1 (stereo not drawn) .
< 0.1 µM

---

System name: UniProtKB Q06124
Sequence (Q06124 1-593): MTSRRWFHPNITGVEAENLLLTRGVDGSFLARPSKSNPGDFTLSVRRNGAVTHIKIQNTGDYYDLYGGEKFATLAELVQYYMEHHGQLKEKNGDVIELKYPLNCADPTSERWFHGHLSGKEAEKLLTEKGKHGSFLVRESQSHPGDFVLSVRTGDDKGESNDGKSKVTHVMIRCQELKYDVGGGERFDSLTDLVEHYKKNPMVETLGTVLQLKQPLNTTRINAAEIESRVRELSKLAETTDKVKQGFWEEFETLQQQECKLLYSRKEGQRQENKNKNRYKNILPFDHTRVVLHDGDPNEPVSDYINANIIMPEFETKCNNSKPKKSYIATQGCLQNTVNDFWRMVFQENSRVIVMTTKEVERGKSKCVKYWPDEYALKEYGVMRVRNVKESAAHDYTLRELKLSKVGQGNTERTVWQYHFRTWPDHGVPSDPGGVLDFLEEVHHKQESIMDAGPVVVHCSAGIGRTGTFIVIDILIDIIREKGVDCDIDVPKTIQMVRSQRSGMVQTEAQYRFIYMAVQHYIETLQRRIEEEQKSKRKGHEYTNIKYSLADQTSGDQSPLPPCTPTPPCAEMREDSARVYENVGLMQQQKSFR
Assay name: Degradation activity on SHP2 protein in MIA Paca-2 cells (Western blot, DC50)
Format: cell-based
Parameters: endogenous in cells; host or cells: MIA Paca-2 cells
Protocol conditions: read-out: Degradation activity for differenct cell lines MIA Paca-2 (DC50)
For each entry below, report its DC50 value.

# annotated cases, reported DC50 shown
Molecule	DC50
C[C@H]1CN(CCCCCCCCC(=O)Nc2cccc(Sc3cnc(N4CCC(C)(N)CC4)cn3)c2)CCN1c1ccc(C(=O)NCc2ccc3c(c2)CN(C2CCC(=O)NC2=O)C3=O)nn1 (stereo partly shown)	< 0.1 µM
CC1(N)CCN(c2cnc(Sc3cccc(NC(=O)c4ccc(N5CCC(N6CC=C(c7ccc(C(=O)NCc8ccc9c(c8)CN(C8CCC(=O)NC8=O)C9=O)nn7)CC6)CC5)nc4)c3)cn2)CC1 (stereo not shown)	< 0.1 µM
CC1(N)CCN(c2cnc(Sc3cccc(NC(=O)c4ccc(-c5ccc(N6CCC(C7=CCC(C(=O)NCc8ccc9c(c8)CN(C8CCC(=O)NC8=O)C9=O)CC7)CC6)cc5)cc4)c3)cn2)CC1 (stereo not shown)	> 1 µM

Hi! Can you tell me DC50 for each of these molecules?
1. CCC1(N)CCN(c2cnc(Sc3cccc(NC(=O)CCCCCCCCN4CCN(c5ccc(C(=O)NCc6ccc7c(c6)CN(C6CCC(=O)NC6=O)C7=O)nn5)CC4C(F)(F)F)c3)cn2)CC1 (stereo not shown)
2. CC1(N)CCN(c2cnc(Sc3cccc(NC(=O)CCCCCCCCN4CCN(c5ccc(C(=O)NCc6ccc7c(c6)CN(C6CCC(=O)NC6=O)C7=O)nn5)CC4C(F)(F)F)c3)cn2)CC1 (stereo not shown)
3. Cc1cc(C(=O)Nc2cccc(Sc3cnc(N4CCC(C)(N)CC4)cn3)c2)ccc1N1CCC(N2CC=C(c3cnc(C(=O)NCc4ccc5c(c4)CN(C4CCC(=O)NC4=O)C5=O)cc3Cl)CC2)CC1 (stereo not shown)
4. CC1CN(CCCCCCCCC(=O)Nc2cccc(Sc3cnc(N4CCC(C)(N)CC4)cn3)c2)CC=C1c1ccc(C(=O)NC(C)c2ccc3c(c2)CN(C2CCC(=O)NC2=O)C3=O)nc1 (stereo not shown)

1: < 0.1 µM; 2: < 0.1 µM; 3: < 0.1 µM; 4: < 0.1 µM
